Source listed as PubChem BioAssay (NCI).

tested on: CAKI-1 renal; assay: NCI tumour cell line growth inhibition, 48 h
// values below are reported TGI

Please review the following examples before continuing.
Query: Bench note: what TGI did COc1ccccc1-c1ccc2c(N)c(C(=O)c3ccc4c(c3)OCO4)sc2n1 show?
Result: 25.9 µM

Query: Reported TGI for COC(=O)c1cc2c([nH]c3ccccc32)c(-c2nc3ccccc3cc2CO)n1 : what is it?
Result: > 100 µM

Query: Return reported TGI; argument: CC(c1ccccc1)n1c2ccccc2c2c(N)ncnc21 (centres undefined)
Result: 62.2 µM

Query: Look at this compound and give its reported TGI. CCOC(=O)CN1C(=O)c2c(NC(=O)C(=O)O)cccc2S1(=O)=O
Result: > 100 µM

Query: # query: TGI of entry COc1ccc(C(SCCO)(c2ccc(OC)cc2)c2ccc(OC)cc2)cc1
Result: > 100 µM

---
Query: What does the data say about its TGI? Entry: CC1=NC(=O)CNN1C1=NNC2(C(=O)N1)c1ccccc1-c1ccccc12
Result: > 100 µM

Query: May I ask what TGI has been recorded for CN(C)C1(N(C)C)Oc2c(c(=O)n(C)c(=O)n2C)C(c2ccc(F)cc2)C1(F)F (centres undefined) ?
Result: > 100 µM

Query: // query TGI value for entry CC(C)(CN1CCCCC1)C(=O)CC(SCCS(=O)(=O)O)c1ccccc1 (centres undefined)
Result: 34.9 µM

Query: # TGI lookup, item CSC(=NC(=O)c1ccccc1)SCCSC(=NC(=O)c1ccccc1)SC
Result: > 100 µM

* * *

Quick reference for TGI among some compounds
tested on: COLO 205 colon; assay: NCI tumour cell line growth inhibition, 48 h

Known TGI results, listed for orientation:
Query: Find TGI (COLO 205 colon) for the entry COc1cc2c(cc1OC)-c1cc3cc(OC)c(OC)cc3c(C)[n+]1CC2 (tested in a mixture with another compound)
Result: > 100 µM

Query: Report TGI for CCCCCCCCCCCCSC1=CC(=O)C=CC1=O tested on COLO 205 colon.
Result: > 36.2 µM

Turning now to a further record.
Query: State its TGI on COLO 205 colon: CCOC(=O)c1cc(C2CCN(Cc3ccccc3)C2=O)c(C(=O)/C=C(/C)N)[nH]1 (stereo not drawn)
Result: > 100 µM

* * *

system: KM12 colon; experiment: NCI tumour cell line growth inhibition, 48 h
reported endpoint: TGI

Check out these entries, answers already filled in.
Query: TGI for O=C(O)C1C2C=CC(O2)C1C(=O)NCc1ccncc1 (stereo not drawn) ?
Result: > 100 µM

Query: Look up TGI: COc1ccc(Cl)cc1Nc1nc(C(F)(F)F)ccc1C(=O)N/N=C/c1ccccc1Cl
Result: > 28 µM

Next compound, TGI to be filled in.
Query: Entry under review: O=C(O)CCC1(CCC(=O)O)CCCCCCCCC(CCC(=O)O)(CCC(=O)O)C(=O)C1=O . Reported TGI?
Result: > 100 µM

* * *

Quick list: TGI per entry.
system: KM12 colon; assay: NCI tumour cell line growth inhibition, 48 h

Below, 2 compounds whose answers are already recorded.
Query: Param item = Cc1ccc(C(CCO)CCO)nc1 ; retrieve measured TGI.
Result: > 100 µM

Query: TGI lookup needed for O=c1[nH]c(Br)nc2n[nH]nc12 , thanks.
Result: > 100 µM

Now look at this one.
Query: Fill in: TGI of O=C1/C(=C/c2cccc([N+](=O)[O-])c2)Cc2ccccc21 is ___
Result: > 100 µM

* * *

system: OVCAR-3 ovarian; assay: NCI tumour cell line growth inhibition, 48 h
Each item that follows carries a reported TGI.

Query: Given the entry COC(=O)/C(=N\Nc1nc(=S)[nH]n1N)C(C#N)c1ccc(Cl)cc1 (centres undefined) , report its measured TGI.
Result: > 100 µM

Query: I'd like to know its TGI. The molecule in question is CCCCCCCCCCCCCC(=O)NO
Result: 28 µM

Query: What measured TGI goes with CC(C)(C)C1CCC2c3c([nH]c4ccccc34)C3C(=O)N(c4cc(Cl)ccc4Cl)C(=O)C3C2C1 (centres undefined) ?
Result: > 100 µM

Continuing:
Query: What value of measured TGI is listed for CCC/C=C/C=C\C(=O)O[C@@H]1[C@@H](C)[C@]2(O)[C@@H]3C=C(C)C(=O)[C@H]3CC(COC(C)=O)=C[C@H]2[C@@H]2C(C)(C)[C@]12OC(C)=O ?
Result: 91.2 µM

* * *

compounds and their reported TGI
system: HOP-92 NSCLC; assay: NCI tumour cell line growth inhibition, 48 h

Query: I'd like to know its TGI. The compound in question is O=C1Nc2n[nH]c(=S)n2NC12c1ccccc1-c1ccccc12
Result: > 100 µM

Query: Reported TGI, compound COc1cc(C2SCC(=O)N2c2ccc(Cl)cc2)cc(OC)c1OC (configuration not stated) : ____
Result: > 100 µM

Query: Which value of TGI has been reported for CC(C)(C)C1CCC2c3c([nH]c4ccccc34)C3C(=O)N(c4cc(Cl)ccc4Cl)C(=O)C3C2C1 (configuration not stated) in the records?
Result: > 100 µM

Query: So what does the record say about TGI for COC(=O)N1C2C(C[C@@]1(C)C(=O)OC)c1ccccc1N2S(=O)(=O)c1ccccc1 (some centres not stated) ?
Result: > 100 µM

Query: Fill in the blank: the reported TGI of COc1cc2cnc3c4cc(O)ccc4ccc3c2cc1OC is ____.
Result: > 100 µM

***
Query: TGI for CCOC(=O)C12CCC(c3c(C)cccc3C)(O1)C(C(=O)OC)=C2C(=O)OC (configuration not stated) ?
Result: > 10 µM

Query: Which measured TGI value corresponds to CC(C)c1ccc(C(O)(C(=O)O)c2ccc(C(C)C)cc2)cc1 ?
Result: > 100 µM

Query: Any idea what TGI was measured for CCCCCCc1cc2cc(-c3cn4ccccc4n3)c(=O)oc2cc1O ?
Result: 32.6 µM

Query: Please report the recorded TGI for CC(=O)O[C@H]1C(=O)[C@@]2(C)[C@H]([C@H](OC(=O)c3ccccc3)[C@]3(O)C[C@H](OC(=O)[C@H](O)[C@@H](NC(=O)OC(C)(C)C)c4ccco4)C(C)=C1C3(C)C)[C@]1(OC(C)=O)CO[C@@H]1C[C@@H]2O .
Result: 43.5 µM

Query: Which value of TGI has been reported for NCCNc1ccc(NCCN)c2c1C(=O)c1c(O)ccc(O)c1C2=O in the records?
Result: 0.0789 µM

Query: For Cc1nccc2c3ccc(OCc4cn(-c5ccc(Br)cc5)nn4)cc3n(CCCc3ccccc3)c12 , what is its reported TGI?
Result: > 100 µM

Query: Returns the measured TGI for the input compound. Input: Oc1c(Cl)c(Cl)c(O)c(-c2cnc(-c3ncc(-c4c(O)c(Cl)c(Cl)c(O)c4Cl)s3)s2)c1Cl
Result: > 100 µM

* * *

system: SR leukemia; assay: NCI tumour cell line growth inhibition, 48 h
reported endpoint: TGI

Query: What is its TGI for SR leukemia? Entry: C/C1=C\CC[C@@]2(C)O[C@@H]2C[C@@H]2[C@H](C/C(C)=C/CC1)OC(=O)[C@]21CO1
Result: > 100 µM

Others:
Query: # get_value(readout= TGI, system= SR leukemia) for CC(=O)OC1CC2C(=O)CC1(C)C2(C)C (stereo not drawn)
Result: > 100 µM

Query: Request - read-out TGI | tested on SR leukemia | compound Cc1ccc(C(CCO)CCO)nc1
Result: > 100 µM

Query: // map CC(C)C1CCC(=O)CC1CCCCC1CC(=O)CC1O[Si](C)(C)C(C)(C)C (stereo not drawn) to recorded TGI (system: SR leukemia)
Result: > 35.1 µM

Query: I'm curious: which TGI was measured for CC1(C)C2=CCCC(=O)[C@@]2(C)CC[C@@H]1O tested on SR leukemia?
Result: > 100 µM

Query: Give recorded TGI with SR leukemia for the following compound: Nc1nc(N)c2c(-c3ccccc3)ccnc2n1
Result: > 100 µM

Query: Query TGI on SR leukemia for c1ccc(N2CCN(CCCN3CCc4c([nH]c5ccccc45)C3c3cccnc3)CC2)cc1 (stereo not drawn)
Result: > 71.1 µM

Query: So what TGI did COc1c(-c2ccc(F)cc2)oc2c(CC(=O)O)cccc2c1=O get with SR leukemia?
Result: > 100 µM

* * *

system: HL-60(TB) leukemia; assay: NCI tumour cell line growth inhibition, 48 h
reported endpoint: TGI

# annotated cases, reported TGI shown
Query: Bench note: what TGI did CCOC1Oc2ccccc2C(=O)/C1=C\Nc1ccc(C(=O)O)c(O)c1 (stereo not drawn) show?
Result: > 100 µM

Query: Endpoint output: TGI of Oc1c(Cl)c(Cl)c(O)c(-c2cnc(-c3ncc(-c4c(O)c(Cl)c(Cl)c(O)c4Cl)s3)s2)c1Cl . Value?
Result: > 100 µM

// switching to the query compound
Query: Suppose we examine the compound CCOC(=O)C12CCC(c3c(C)cccc3C)(O1)C(C(=O)OC)=C2C(=O)OC (stereo not drawn) ; what TGI value has been reported?
Result: > 7.4 µM
